For each of the compounds below, state its melting point.

Return melting point (reported value) for this compound: CCc1c(O)c(=O)ccn1CCn1cc(COc2cc(=O)oc3ccccc23)nn1 [Compound 27f]
253 to 256 °C

Return melting point (reported value) for this compound: CCc1c(O)c(=O)ccn1CCCn1cc(COc2cc(=O)oc3ccccc23)nn1 [Compound 27g]
195 to 198 °C

Return melting point (reported value) for this compound: Cc1cc(=O)c(O)c(C)n1CCCn1cc(COc2ccc3ccc(=O)oc3c2)nn1 [Compound 27d]
263 to 265 °C

----------
Assay: Determination of iron(III) affinity (Logβ1, Logβ2, Logβ3) by spectrophotometric titration
Format: physicochemical
Conditions: DMSO:KCl (0.1 M) = 2:3 (V/V), 25 °C; compound:iron 5:1
property_name: Logβ3
Enter a number only.

Return Logβ3 (reported value) for this compound: CCc1c(O)c(=O)ccn1CCn1cc(COc2cc3ccccc3oc2=O)nn1 [Compound 27i]
32.8

Return Logβ3 (reported value) for this compound: Cc1cc(=O)c(O)c(CO)n1CCn1cc(COc2cc(=O)oc3ccccc23)nn1 [Compound 27h]
33.2

Return Logβ3 (reported value) for this compound: Cc1cc(=O)c(O)c(CO)n1CCn1cc(COc2ccc3ccc(=O)oc3c2)nn1 [Compound 27a]
33.7

Return Logβ3 (reported value) for this compound: CCc1c(O)c(=O)ccn1CCCn1cc(COc2cc3ccccc3oc2=O)nn1 [Compound 27j]
33.5

Return Logβ3 (reported value) for this compound: CCc1c(O)c(=O)ccn1CCCn1cc(COc2cc(=O)oc3ccccc23)nn1 [Compound 27g]
33.1

Return Logβ3 (reported value) for this compound: CCc1c(O)c(=O)ccn1CCCn1cc(COc2ccc3ccc(=O)oc3c2)nn1 [Compound 27e]
33.2

Return Logβ3 (reported value) for this compound: Cc1c(O)c(=O)ccn1C [Deferiprone]
33.6

Return Logβ3 (reported value) for this compound: Cc1cc(=O)c(O)c(CO)n1CCCn1cc(COc2cc3ccccc3oc2=O)nn1 [Compound 27k]
33.0

Return Logβ3 (reported value) for this compound: CCc1c(O)c(=O)ccn1CCn1cc(COc2cc(=O)oc3ccccc23)nn1 [Compound 27f]
32.8

Return Logβ3 (reported value) for this compound: Cc1cc(=O)c(O)c(C)n1CCn1cc(COc2ccc3ccc(=O)oc3c2)nn1 [Compound 27c]
34.1

Return Logβ3 (reported value) for this compound: Cc1cc(=O)c(O)c(C)n1CCCn1cc(COc2ccc3ccc(=O)oc3c2)nn1 [Compound 27d]
34.8

Return Logβ3 (reported value) for this compound: Cc1cc(=O)c(O)c(CO)n1CCCn1cc(COc2ccc3ccc(=O)oc3c2)nn1 [Compound 27b]
33.5

----------
Test: pKa determination by automatic spectrophotometric titration
Assay type: physicochemical
Settings: DMSO/0.1 M KCl 2:3 (V/V) solution, DMSO:KCl (0.1 M) = 2:3 (V/V), 25 °C; read-out: pKa1
Description: The automatic titration system used in the test consisted of an automatic titrator, a luminescence 759 s UV-Vis spectrophotometer, and a pH Meter (Mettler Toledo InLab Expert PRO/Mettler Toledo InLab Science). All instruments are controlled by a computer program. […] The titration was performed in a 50 mm path length cuvette. […] All data were recorded internally by the Visual Basic program, and the test results are analysed by the HypSpec2014 program.
# if value of pKa reaches 3, tag YES; if it stays below, tag NO

Is it the case that CCc1c(O)c(=O)ccn1CCn1cc(COc2cc3ccccc3oc2=O)nn1 [Compound 27i] has pKa reaching or exceeding 3?
NO

Is it the case that Cc1cc(=O)c(O)c(CO)n1CCCn1cc(COc2cc3ccccc3oc2=O)nn1 [Compound 27k] has pKa reaching or exceeding 3?
YES

Is it the case that CCc1c(O)c(=O)ccn1CCCn1cc(COc2cc(=O)oc3ccccc23)nn1 [Compound 27g] has pKa reaching or exceeding 3?
YES

Is it the case that Cc1cc(=O)c(O)c(CO)n1CCCn1cc(COc2ccc3ccc(=O)oc3c2)nn1 [Compound 27b] has pKa reaching or exceeding 3?
NO

Is it the case that CCc1c(O)c(=O)ccn1CCn1cc(COc2cc(=O)oc3ccccc23)nn1 [Compound 27f] has pKa reaching or exceeding 3?
YES

Is it the case that Cc1cc(=O)c(O)c(CO)n1CCn1cc(COc2ccc3ccc(=O)oc3c2)nn1 [Compound 27a] has pKa reaching or exceeding 3?
NO

Is it the case that CCc1c(O)c(=O)ccn1CCCn1cc(COc2cc3ccccc3oc2=O)nn1 [Compound 27j] has pKa reaching or exceeding 3?
YES

Is it the case that Cc1cc(=O)c(O)c(C)n1CCCn1cc(COc2ccc3ccc(=O)oc3c2)nn1 [Compound 27d] has pKa reaching or exceeding 3?
YES

Is it the case that CCc1c(O)c(=O)ccn1CCCn1cc(COc2ccc3ccc(=O)oc3c2)nn1 [Compound 27e] has pKa reaching or exceeding 3?
YES

Is it the case that Cc1cc(=O)c(O)c(C)n1CCn1cc(COc2ccc3ccc(=O)oc3c2)nn1 [Compound 27c] has pKa reaching or exceeding 3?
YES

----------
Molecular target: Human MAO-B (Homo sapiens, UniProt P27338)
Construct: purchased Sigma-Aldrich
Sequence (P27338 whole entry): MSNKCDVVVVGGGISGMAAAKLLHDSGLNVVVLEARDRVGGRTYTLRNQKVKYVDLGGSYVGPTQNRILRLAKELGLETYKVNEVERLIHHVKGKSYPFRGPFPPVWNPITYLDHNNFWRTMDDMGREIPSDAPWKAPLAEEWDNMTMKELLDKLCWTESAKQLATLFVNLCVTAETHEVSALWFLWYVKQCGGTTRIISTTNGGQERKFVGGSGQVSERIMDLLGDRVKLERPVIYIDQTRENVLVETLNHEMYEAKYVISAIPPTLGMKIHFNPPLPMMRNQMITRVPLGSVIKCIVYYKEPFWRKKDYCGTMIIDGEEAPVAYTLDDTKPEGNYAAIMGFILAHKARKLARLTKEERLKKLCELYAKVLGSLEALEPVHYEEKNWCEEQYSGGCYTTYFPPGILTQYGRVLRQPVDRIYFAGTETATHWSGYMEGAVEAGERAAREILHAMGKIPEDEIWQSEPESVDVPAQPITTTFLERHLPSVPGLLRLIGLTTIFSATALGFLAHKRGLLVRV
Experiment: Determination of human MAO-B inhibitory activity (Monoamine Oxidase Assay Kit, fluorescence)
Type: biochemical
Conditions: compound at 1 μM, read-out: Inhibitory rate (%) 1 μM
property_name: inhibition at 1 µM

Return inhibition at 1 µM (reported value) for this molecule: CCc1c(O)c(=O)ccn1CCCn1cc(COc2cc(=O)oc3ccccc23)nn1 [Compound 27g]
> 20%

Return inhibition at 1 µM (reported value) for this molecule: Cc1cc(=O)c(O)c(CO)n1CCn1cc(COc2ccc3ccc(=O)oc3c2)nn1 [Compound 27a]
> 20%

Return inhibition at 1 µM (reported value) for this molecule: CCc1c(O)c(=O)ccn1CCn1cc(COc2cc3ccccc3oc2=O)nn1 [Compound 27i]
> 30%

Return inhibition at 1 µM (reported value) for this molecule: Cc1cc(=O)c(O)c(CO)n1CCCn1cc(COc2cc3ccccc3oc2=O)nn1 [Compound 27k]
> 30%

Return inhibition at 1 µM (reported value) for this molecule: CCc1c(O)c(=O)ccn1CCn1cc(COc2cc(=O)oc3ccccc23)nn1 [Compound 27f]
> 30%

----------
Assay: Determination of iron(III) affinity (Logβ1, Logβ2, Logβ3) by spectrophotometric titration
Type: physicochemical
Conditions: DMSO:KCl (0.1 M) = 2:3 (V/V), 25 °C; compound:iron 1.1:1
Method: The automatic titration system used in the test consisted of an automatic titrator, a luminescence 759 s UV-Vis spectrophotometer, and a pH Meter (Mettler Toledo InLab Expert PRO/Mettler Toledo InLab Science). […] A 45 ml KCl (0.1 M) solution was added to the cuvette (50 mm) and the pH value was acidified to 2.1. […] After the absorbance value is stabilised, a certain amount of HCl solution (4 M) was added by the automatic buret to reduce the pH of the solution by 0.1. […]
For each of the molecules below, state its Logβ1.
Enter a number only.

Return Logβ1 (reported value) for this molecule: Cc1c(O)c(=O)ccn1C [Deferiprone]
14.83

Return Logβ1 (reported value) for this molecule: CCc1c(O)c(=O)ccn1CCn1cc(COc2cc(=O)oc3ccccc23)nn1 [Compound 27f]
14.9

Return Logβ1 (reported value) for this molecule: Cc1cc(=O)c(O)c(CO)n1CCCn1cc(COc2cc3ccccc3oc2=O)nn1 [Compound 27k]
13.6
